Each recorded value in this set is attributed to paper PMC4374931.

experiment: in vitro; assay type: cell-based; details: human
Where a name gives a salt, the structure may show the parent alone.

[
  {
    "Compound": "CC(=O)[C@H]1CC[C@H]2[C@@H]3CCC4=CC(=O)CC[C@]4(C)[C@H]3CC[C@]12C [Progesterone, progesterone]",
    "viability at 24 h, 10 nM / %": 98.7
  },
  {
    "Compound": "CC(=O)S[C@@H]1CC2=CC(=O)CC[C@]2(C)[C@H]2CC[C@@]3(C)[C@@H](CC[C@@]34CCC(=O)O4)[C@H]12 [Spironolactone, spironolactone]",
    "viability at 24 h, 10 nM / %": 112
  },
  {
    "Compound": "C[C@]12C=CC(=O)C=C1CC[C@H]1[C@@H]3C[C@@H](O)[C@](O)(C(=O)CO)[C@@]3(C)C[C@H](O)[C@@]12F [Triamcinolone, triamcinolone]",
    "viability at 24 h, 10 nM / %": 100
  },
  {
    "Compound": "C#C[C@]1(O)CC[C@H]2[C@@H]3CCC4=Cc5oncc5C[C@]4(C)[C@H]3CC[C@@]21C [Danazol]",
    "viability at 24 h, 10 nM / %": 108
  },
  {
    "Compound": "O=C(c1ccc(OCCN2CCCCC2)cc1)c1c(-c2ccc(O)cc2)sc2cc(O)ccc12 [Raloxifene hydrochloride, raloxifene hydrochloride]",
    "viability at 24 h, 10 nM / %": 99.8
  },
  {
    "Compound": "CC/C(=C(\\c1ccccc1)c1ccc(OCCN(C)C)cc1)c1ccccc1 [Tamoxifen citrate, tamoxifen citrate salt]",
    "viability at 24 h, 10 nM / %": 107
  }
]
